Measured values drawn from patent EP0252525B1 for this set.

Biological target: HPA (Homo sapiens, UniProt P04746)
Sequence (P04746 16-511): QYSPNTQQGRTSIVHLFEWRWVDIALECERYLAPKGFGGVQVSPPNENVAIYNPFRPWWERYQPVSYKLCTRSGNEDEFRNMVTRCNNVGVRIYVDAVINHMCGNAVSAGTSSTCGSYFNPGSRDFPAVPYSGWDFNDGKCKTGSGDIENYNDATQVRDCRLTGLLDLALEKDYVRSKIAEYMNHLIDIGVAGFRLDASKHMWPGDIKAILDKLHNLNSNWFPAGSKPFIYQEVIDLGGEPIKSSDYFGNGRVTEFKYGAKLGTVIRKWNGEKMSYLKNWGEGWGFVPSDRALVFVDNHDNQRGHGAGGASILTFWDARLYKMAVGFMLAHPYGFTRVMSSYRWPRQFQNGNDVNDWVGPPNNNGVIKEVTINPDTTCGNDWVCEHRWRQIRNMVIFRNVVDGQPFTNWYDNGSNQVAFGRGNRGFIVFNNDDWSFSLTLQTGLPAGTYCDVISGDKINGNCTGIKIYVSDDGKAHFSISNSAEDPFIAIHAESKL
Assay: Binding mode (distribution of hydrolysis products) by HPLC
Assay type: biochemical
Conditions: share of product G4P
Measured endpoint: Hydrolysis product G4P (%)
// return numeric value only (unit: %, not printed)

Worked cases, answers included:
- Compound: "O=[N+]([O-])c1ccc(O[C@H]2O[C@H](CO)[C@@H](O[C@H]3O[C@H](CO)[C@@H](O[C@H]4O[C@H](CO)[C@@H](O[C@H]5O[C@H](CO)[C@@H](O[C@H]6O[C@H](COCc7ccccc7)[C@@H](O)[C@H](O)[C@H]6O)[C@H](O)[C@H]5O)[C@H](O)[C@H]4O)[C@H](O)[C@H]3O)[C@H](O)[C@H]2O)cc1"
  Hydrolysis product G4P, %: 0
- Compound: "O=[N+]([O-])c1ccc(O[C@H]2O[C@H](CO)[C@@H](O[C@H]3O[C@H](CO)[C@@H](O[C@H]4O[C@H](CO)[C@@H](O[C@H]5O[C@H](CO)[C@@H](O)[C@H](O)[C@H]5O)[C@H](O)[C@H]4O)[C@H](O)[C@H]3O)[C@H](O)[C@H]2O)cc1 [Substrate G4P]"
  Hydrolysis product G4P, %: 0

Could you now look at the following compound, please?
Consider the compound `O=[N+]([O-])c1ccc(O[C@H]2O[C@H](CO)[C@@H](O[C@H]3O[C@H](CO)[C@@H](O[C@H]4O[C@H](CO)[C@@H](O[C@H]5O[C@H](CO)[C@@H](O[C@H]6O[C@H](CO)[C@@H](O[C@H]7O[C@H](CO)[C@@H](O[C@H]8O[C@H](COCc9ccccc9)[C@@H](O)[C@H](O)[C@H]8O)[C@H](O)[C@H]7O)[C@H](O)[C@H]6O)[C@H](O)[C@H]5O)[C@H](O)[C@H]4O)[C@H](O)[C@H]3O)[C@H](O)[C@H]2O)cc1` and give its recorded Hydrolysis product G4P.
40
